Data credit: patent US9326506B2

Tested on: rice
EXPERIMENT: Low temperature assay on rice seedlings
Format: in vivo
CONDITION DESCRIPTION: 1 mg/l, 1 °C, 12 days
Can you tell me Area of leaf for the items I'm about to list?
Give bare numbers, in cm^2.

Look over these answered cases.
COMPOUND | MEASURED ON | Area of leaf [cm^2]
CC(C)[C@H](C)[C@@H](O)[C@H](O)[C@@H](C)[C@H]1CCC2C3COC(=O)C4C[C@H](O)[C@H](O)C[C@]4(C)C3CC[C@@]21C (stereo partly drawn) | rice | 13
CC(C)(O)CC[C@@H](O)[C@](C)(O)[C@H]1CC[C@@]2(O)[C@@H]3CC(=O)[C@@H]4C[C@@H](O)[C@@H](O)C[C@]4(C)[C@H]3CC[C@]12C | rice | 12.8
CC(C)C[C@@H](O)[C@H](O)[C@@H](C)[C@H]1CCC2C3CC(=O)C4C[C@H](O)[C@H](O)C[C@]4(C)C3CC[C@@]21C (stereo partly drawn) | rice | 13
CC[C@@H](C(C)C)[C@@H](O)[C@H](O)[C@@H](C)[C@H]1CCC2C3COC(=O)C4C[C@H](O)[C@H](O)C[C@]4(C)C3CC[C@@]21C (stereo partly drawn) | rice | 13

# batch: return Area of leaf for each of the 2 compounds below
1. C=C(C(C)C)[C@@H](O)[C@H](O)[C@@H](C)[C@H]1CCC2C3COC(=O)C4C[C@H](O)[C@H](O)C[C@]4(C)C3CC[C@@]21C (stereo partly drawn)
2. CC(C)[C@H](C)[C@@H](O)[C@H](O)[C@@H](C)[C@H]1CCC2C3CC(=O)C4C[C@H](O)CC[C@]4(C)C3CC[C@@]21C (stereo partly drawn)

13
13

###

Test system: rice
EXPERIMENT: Low temperature assay on rice seedlings
Assay type: in vivo
CONDITION DESCRIPTION: 0.01 mg/l, 4 °C, 6 days
Can you tell me Height for the items I'm about to list?
One number for each entry, in cm.

COMPOUND | UNIT NAME | Height
CC(C)(O)CC[C@@H](O)[C@](C)(O)[C@H]1CC[C@@]2(O)[C@@H]3CC(=O)[C@@H]4C[C@@H](O)[C@@H](O)C[C@]4(C)[C@H]3CC[C@]12C | cm | 7.3
CC[C@@H](C(C)C)[C@@H](O)[C@H](O)[C@@H](C)[C@H]1CCC2C3COC(=O)C4C[C@H](O)[C@H](O)C[C@]4(C)C3CC[C@@]21C (stereo partly drawn) | cm | 7.5
C=C(C(C)C)[C@@H](O)[C@H](O)[C@@H](C)[C@H]1CCC2C3COC(=O)C4C[C@H](O)[C@H](O)C[C@]4(C)C3CC[C@@]21C (stereo partly drawn) | cm | 7.4
CC(C)[C@H](C)[C@@H](O)[C@H](O)[C@@H](C)[C@H]1CCC2C3COC(=O)C4C[C@H](O)[C@H](O)C[C@]4(C)C3CC[C@@]21C (stereo partly drawn) | cm | 7.3
CC(C)[C@H](C)[C@@H](O)[C@H](O)[C@@H](C)[C@H]1CCC2C3CC(=O)C4C[C@H](O)CC[C@]4(C)C3CC[C@@]21C (stereo partly drawn) | cm | 7.4

Which Height value is on record for CC(C)C[C@@H](O)[C@H](O)[C@@H](C)[C@H]1CCC2C3CC(=O)C4C[C@H](O)[C@H](O)C[C@]4(C)C3CC[C@@]21C (stereo partly drawn) ? 7.5

###

Tested on: rice
EXPERIMENT: Low temperature assay on rice seedlings
Format: in vivo
CONDITION DESCRIPTION: 0.1 mg/l, 4 °C, 12 days
MEASURED METRIC: Height
Please format your answer as a value with the unit trailing.

Look over these answered cases.
COMPOUND | Height
CC(C)[C@H](C)[C@@H](O)[C@H](O)[C@@H](C)[C@H]1CCC2C3CC(=O)C4C[C@H](O)CC[C@]4(C)C3CC[C@@]21C (stereo partly drawn) | 8 cm
C=C(C(C)C)[C@@H](O)[C@H](O)[C@@H](C)[C@H]1CCC2C3COC(=O)C4C[C@H](O)[C@H](O)C[C@]4(C)C3CC[C@@]21C (stereo partly drawn) | 8.1 cm
CC(C)(O)CC[C@@H](O)[C@](C)(O)[C@H]1CC[C@@]2(O)[C@@H]3CC(=O)[C@@H]4C[C@@H](O)[C@@H](O)C[C@]4(C)[C@H]3CC[C@]12C | 7.7 cm
CC[C@@H](C(C)C)[C@@H](O)[C@H](O)[C@@H](C)[C@H]1CCC2C3COC(=O)C4C[C@H](O)[C@H](O)C[C@]4(C)C3CC[C@@]21C (stereo partly drawn) | 8.1 cm
CC(C)C[C@@H](O)[C@H](O)[C@@H](C)[C@H]1CCC2C3CC(=O)C4C[C@H](O)[C@H](O)C[C@]4(C)C3CC[C@@]21C (stereo partly drawn) | 8 cm

Here is the next item to consider.
Form field: Height recorded for CC(C)[C@H](C)[C@@H](O)[C@H](O)[C@@H](C)[C@H]1CCC2C3COC(=O)C4C[C@H](O)[C@H](O)C[C@]4(C)C3CC[C@@]21C (stereo partly drawn) with rice (enter value) 7.7 cm

###

Test system: rice
EXPERIMENT: Low temperature assay on rice seedlings
Format: in vivo
CONDITION DESCRIPTION: 0.001 mg/l, 4 °C, 9 days
Can you tell me Area of leaf for the items I'm about to list?
Give bare numbers, in cm^2.

Look over these answered cases.
COMPOUND | MEASURED METRIC | VAL
CC(C)(O)CC[C@@H](O)[C@](C)(O)[C@H]1CC[C@@]2(O)[C@@H]3CC(=O)[C@@H]4C[C@@H](O)[C@@H](O)C[C@]4(C)[C@H]3CC[C@]12C | Area of leaf | 13.1
CC(C)[C@H](C)[C@@H](O)[C@H](O)[C@@H](C)[C@H]1CCC2C3COC(=O)C4C[C@H](O)[C@H](O)C[C@]4(C)C3CC[C@@]21C (stereo partly drawn) | Area of leaf | 13.1
CC(C)[C@H](C)[C@@H](O)[C@H](O)[C@@H](C)[C@H]1CCC2C3CC(=O)C4C[C@H](O)CC[C@]4(C)C3CC[C@@]21C (stereo partly drawn) | Area of leaf | 13
C=C(C(C)C)[C@@H](O)[C@H](O)[C@@H](C)[C@H]1CCC2C3COC(=O)C4C[C@H](O)[C@H](O)C[C@]4(C)C3CC[C@@]21C (stereo partly drawn) | Area of leaf | 13
CC(C)C[C@@H](O)[C@H](O)[C@@H](C)[C@H]1CCC2C3CC(=O)C4C[C@H](O)[C@H](O)C[C@]4(C)C3CC[C@@]21C (stereo partly drawn) | Area of leaf | 13

Which Area of leaf value is on record for CC[C@@H](C(C)C)[C@@H](O)[C@H](O)[C@@H](C)[C@H]1CCC2C3COC(=O)C4C[C@H](O)[C@H](O)C[C@]4(C)C3CC[C@@]21C (stereo partly drawn) ? 13

###

Can you tell me Area of leaf for the items I'm about to list?
Tested on: rice
EXPERIMENT: Low temperature assay on rice seedlings
Type: in vivo
CONDITION DESCRIPTION: 0.001 mg/l, 1 °C, 3 days
Give bare numbers, in cm^2.

Look over these answered cases.
COMPOUND | UNIT NAME | VAL
C=C(C(C)C)[C@@H](O)[C@H](O)[C@@H](C)[C@H]1CCC2C3COC(=O)C4C[C@H](O)[C@H](O)C[C@]4(C)C3CC[C@@]21C (stereo partly drawn) [BR3] | cm^2 | 10
CC[C@@H](C(C)C)[C@@H](O)[C@H](O)[C@@H](C)[C@H]1CCC2C3COC(=O)C4C[C@H](O)[C@H](O)C[C@]4(C)C3CC[C@@]21C (stereo partly drawn) [BR2] | cm^2 | 10.1

Here is the next item to consider.
Form field: Area of leaf recorded for CC(C)(O)CC[C@@H](O)[C@](C)(O)[C@H]1CC[C@@]2(O)[C@@H]3CC(=O)[C@@H]4C[C@@H](O)[C@@H](O)C[C@]4(C)[C@H]3CC[C@]12C [BR6] with rice (enter value) 10

###

System: rice
EXPERIMENT: Low temperature assay on rice seedlings
Type: in vivo
CONDITION DESCRIPTION: 1 mg/l, 3 °C, 9 days
Can you tell me Height for the items I'm about to list?
One number for each entry, in cm.

Look over these answered cases.
COMPOUND | UNIT NAME | Height
CC[C@@H](C(C)C)[C@@H](O)[C@H](O)[C@@H](C)[C@H]1CCC2C3COC(=O)C4C[C@H](O)[C@H](O)C[C@]4(C)C3CC[C@@]21C (stereo partly drawn) | cm | 7.9
CC(C)(O)CC[C@@H](O)[C@](C)(O)[C@H]1CC[C@@]2(O)[C@@H]3CC(=O)[C@@H]4C[C@@H](O)[C@@H](O)C[C@]4(C)[C@H]3CC[C@]12C | cm | 7.5

Which Height value is on record for CC(C)C[C@@H](O)[C@H](O)[C@@H](C)[C@H]1CCC2C3CC(=O)C4C[C@H](O)[C@H](O)C[C@]4(C)C3CC[C@@]21C (stereo partly drawn) ? 7.6
